runDescription: Inhibition of ram seminal vesicle cyclooxygenase pretreated 2 mins before arachidonate substrate addition
Format: tissue-based, Ovis aries
Friendly reminder: IC50 below 30 µg/mL is 1.0, at or above is 0.0.

# count of solved cases: 5
CC(C)=CCc1cc(-c2oc3c(CC=C(C)C)c(O)cc(O)c3c(=O)c2O)ccc1O    1.0
CC(C)=CCc1c2c(c(O)c3c(=O)c4c(oc13)-c1cc(O)c(O)cc1OC4C=C(C)C)C=CC(C)(C)O2 (stereo unspecified)    1.0
CC(C)=CCc1c([C@@H]2CCc3ccc(O)cc3O2)cc2c(c1O)OC(C)(C)C=C2    0.0
COc1ccc2c(c1)c(CC(=O)O)c(C)n2C(=O)c1ccc(Cl)cc1    1.0
CC(C)=CCc1cc(C(=O)/C=C/c2ccc(O)c(O)c2)c(O)cc1O    1.0

Would you kindly look at the next entry?
Query block: I'd appreciate it if you could check whether `CC(C)=CCc1cc2c(cc1O)O/C(=C\c1ccc(O)c(O)c1)C2=O` has IC50 smaller than 30 µg/mL.
Result block: 1.0

* * *

runDescription: Antiplatelet activity against rabbit platelets assessed as arachidonic acid-induced platelet aggregation at 300 uM by turbidimetric method
Assay type: functional, Oryctolagus cuniculus
Parameter Activity: see the listing below.
Numbers only; they are read as %.

COc1cc(O)c2c(c1)O[C@H](c1ccc(O)cc1O)CC2=O    0
CC(C)=CCc1c([C@@H]2CCc3ccc(O)cc3O2)cc2c(c1O)OC(C)(C)C(O)C2O (some centres undefined)    0
CC(C)=CCc1cc2c(cc1O)O/C(=C\c1ccc(O)c(O)c1)C2=O    0

Query block: Provide one value: measured Activity of CC(C)=CCc1c2c(c(O)c3c(=O)c4c(oc13)-c1cc(O)c(O)cc1OC4C=C(C)C)C=CC(C)(C)O2 (centres undefined)
Result block: 0

Query block: Provide one value: measured Activity of `COc1cc(OC)c([C@@H]2CC(=O)c3c(O)cc(OC)c(CC=C(C)C)c3O2)c(OC)c1`
Result block: 81.5

Query block: Provide one value: measured Activity of `COc1cc(O)c2c(=O)cc(-c3ccc(O)cc3O)oc2c1`
Result block: 0

Query block: Provide one value: measured Activity of CC(=O)Oc1cc(O)c(C(=O)/C=C/c2ccc(OC(C)=O)c(OC(C)=O)c2)cc1CC=C(C)C [BROUSSOCHALCONE TRIACETATE]
Result block: 9.3

Query block: Provide one value: measured Activity of `COc1cc(O)c2c(c1)O[C@H](c1c(OC)cc(OC)cc1OC)CC2=O`
Result block: 27.9

Query block: Provide one value: measured Activity of `COc1cc(O)c2c(=O)cc(-c3ccc(O)cc3O)oc2c1CC=C(C)C`
Result block: 61.8

* * *

Parameter Activity: see the listing below.
runDescription: Antiplatelet activity against rabbit platelets assessed as thrombin-induced platelet aggregation at 300 uM by turbidimetric method
Assay type: functional, Oryctolagus cuniculus
Numbers only; they are read as %.

Query block: Provide one value: measured Activity of CC(C)=CCc1c([C@@H]2CCc3ccc(O)cc3O2)cc2c(c1O)OC(C)(C)C(O)C2O (some centres undefined)
Result block: 92

Query block: Provide one value: measured Activity of `COc1cc(O)c2c(c1)O[C@H](c1ccc(O)cc1O)CC2=O`
Result block: 90.2

Query block: Provide one value: measured Activity of `COc1cc(OC)c([C@@H]2CC(=O)c3c(O)cc(OC)c(CC=C(C)C)c3O2)c(OC)c1`
Result block: 85.7

Query block: Provide one value: measured Activity of `COc1cc(O)c2c(c1)O[C@H](c1c(OC)cc(OC)cc1OC)CC2=O`
Result block: 83.1

Query block: Provide one value: measured Activity of `COc1cc(O)c2c(=O)cc(-c3ccc(O)cc3O)oc2c1`
Result block: 88.2

* * *

Parameter Activity: see the listing below.
runDescription: Antiplatelet activity against rabbit platelets assessed as platelet-activating facto-induced platelet aggregation at 300 uM by turbidimetric method
Format: functional, Oryctolagus cuniculus
Numbers only; they are read as %.

CC(C)=CCc1c2c(c(O)c3c(=O)c4c(oc13)-c1cc(O)c(O)cc1OC4C=C(C)C)C=CC(C)(C)O2 (centres undefined) [CYCLOHETERPHYLLIN]    4.5

Query block: Provide one value: measured Activity of CC(=O)Oc1cc(O)c(C(=O)/C=C/c2ccc(OC(C)=O)c(OC(C)=O)c2)cc1CC=C(C)C [BROUSSOCHALCONE TRIACETATE]
Result block: 0

Query block: Provide one value: measured Activity of CC(C)=CCc1cc2c(cc1O)O/C(=C\c1ccc(O)c(O)c1)C2=O [BROUSSOAURONE A]
Result block: 89.5

Query block: Provide one value: measured Activity of CC(C)=CCc1c([C@@H]2CCc3ccc(O)cc3O2)cc2c(c1O)OC(C)(C)C(O)C2O (some centres undefined) [BROUSSOFLAVAN A]
Result block: 87.9

Query block: Provide one value: measured Activity of `COc1cc(OC)c([C@@H]2CC(=O)c3c(O)cc(OC)c(CC=C(C)C)c3O2)c(OC)c1`
Result block: 84.5

Query block: Provide one value: measured Activity of `COc1cc(O)c2c(c1)O[C@H](c1c(OC)cc(OC)cc1OC)CC2=O`
Result block: 81

Query block: Provide one value: measured Activity of COc1cc(O)c2c(c1)O[C@H](c1ccc(O)cc1O)CC2=O [ARTOCARPANONE]
Result block: 38.6

Query block: Provide one value: measured Activity of COc1cc(O)c2c(=O)cc(-c3ccc(O)cc3O)oc2c1CC=C(C)C [ARTOCARPETIN A]
Result block: 59.8

Query block: Provide one value: measured Activity of COc1cc(O)c2c(=O)cc(-c3ccc(O)cc3O)oc2c1 [ARTOCARPETIN]
Result block: 85.7

* * *

runDescription: Antiplatelet activity against rabbit platelets assessed as thrombin-induced platelet aggregation at 300 uM by turbidimetric method
Type: functional, Oryctolagus cuniculus
measuredAttribute: Activity (%)
Numbers only; they are read as %.

Please review the entries below; each comes with its answer.
CC(C)=CCc1cc2c(cc1O)O/C(=C\c1ccc(O)c(O)c1)C2=O    93.7
CC(=O)Oc1cc(O)c(C(=O)/C=C/c2ccc(OC(C)=O)c(OC(C)=O)c2)cc1CC=C(C)C [BROUSSOCHALCONE TRIACETATE]    88.4
CC(C)=CCc1c2c(c(O)c3c(=O)c4c(oc13)-c1cc(O)c(O)cc1OC4C=C(C)C)C=CC(C)(C)O2 (centres undefined)    82.4

# evaluate next
Query block: Provide one value: measured Activity of `COc1cc(O)c2c(=O)cc(-c3ccc(O)cc3O)oc2c1CC=C(C)C`
Result block: 80.4
